- Assayed target: HLA-A*01:01
- Experiment notes: IEDB peptide-MHC binding, purified MHC/competitive/fluorescence; filed as Kd, often an IC50 or EC50 that approximates it; bounds were set here for any values at or beyond the usual limits of such assays
- Test conditions: source organism: Escherichia coli
pKd: −log10 of the molar value.
Endpoint label: pKd

Qu. What value of pKd has been reported for the following sequence? "HSDTAKAFA"
Ans. ≤ 4.70

---

- Assayed target: HLA-A*29:02
- Experiment notes: IEDB peptide-MHC binding, purified MHC/direct/fluorescence; filed as Kd, often an IC50 or EC50 that approximates it; bounds were set here for any values at or beyond the usual limits of such assays
- Test conditions: source organism: Vibrio parahaemolyticus AQ3810
pKd: −log10 of the molar value.
Endpoint label: pKd

Qu. Notebook entry, HLA-A*29:02 assay: pKd of "MQGKDFNHL" = ?
Ans. ≤ 4.70

Numbers sourced from the Immune Epitope Database (IEDB).
